# Test system: Acinetobacter baumannii ATCC17961
# TEST_DESCRIPTION: Antimicrobial susceptibility testing: 90% growth inhibitory concentration (IC90) determination in Iso-Sensitest broth, OD600 growth
# Format: cell-based
# CONDITIONS: strain ATCC 17961, OD600 growth over 16 h, read-out: A. baumannii ATCC 17961 IC90
QUANTITY_MEASURED: IC90 (nM)
Response body: numeric value in nM, unit text excluded.

Query block: Provide measured IC90 value, entry: NC1CC(NC(=O)c2ccc(Nc3nccn4c(-c5c[nH]nc5C(F)(F)F)cnc34)cc2Cl)C1 (stereo not shown) [Example 403]
Result block: 398

Query block: Provide measured IC90 value, entry: COCCNC(=O)c1ccc(Nc2nccn3c(-c4cn(CC#N)nc4C(F)(F)F)cnc23)cc1Cl
Result block: 211

Query block: Provide measured IC90 value, entry: C#CCn1cc(-c2cnc3c(Nc4cc(C)c(C(=O)NCCOCCN)c(F)c4)nccn23)c(C(F)(F)F)n1
Result block: 216

Query block: Provide measured IC90 value, entry: N#CCCn1cc(-c2cnc3c(Nc4ccc(C(=O)N5CCN(C(=O)NC6CNC6)CC5)c(Cl)c4)nccn23)c(C(F)(F)F)n1
Result block: 533

----------
# Tested on: Acinetobacter baumannii ATCC17961
# TEST_DESCRIPTION: Antimicrobial susceptibility testing: 90% growth inhibitory concentration (IC90) determination in Iso-Sensitest broth, OD600 growth
# Format: cell-based
# CONDITIONS: Acinetobacter baumannii, ATCC17961, 16 h, strain ATCC 17961, OD600 growth over 16 h, read-out: A. baumannii ATCC 17961 IC90
Counter-ions that a name gives are not always drawn.
QUANTITY_MEASURED: IC90

Query block: Using Acinetobacter baumannii ATCC17961 as the test system, report measured IC90 of C=CCNCCCNC(=O)c1ccc(Nc2nccn3c(-c4c[nH]nc4C(F)(F)F)cnc23)cc1CC [Example 196] .
Result block: 0.674 µM

Query block: Using Acinetobacter baumannii ATCC17961 as the test system, report measured IC90 of Cc1cc(Nc2nccn3c(-c4cn(CC(F)F)nc4C(F)(F)F)cnc23)cc(F)c1C(=O)N1CCN(C(=O)C2CCNCC2)CC1 [Example 707] .
Result block: 0.395 µM

Query block: Using Acinetobacter baumannii ATCC17961 as the test system, report measured IC90 of N#CCn1cc(-c2cnc3c(Nc4ccc(C(=O)N5CC(NC(=O)[C@@H]6C[C@@H](O)CN6)C5)c(Cl)c4)nccn23)c(C(F)(F)F)n1 [Example 173] .
Result block: 1.11 µM

Query block: Using Acinetobacter baumannii ATCC17961 as the test system, report measured IC90 of O=C(c1ccc(Nc2nccn3c(-c4cn(CC(F)F)nc4C(F)(F)F)cnc23)cc1Cl)N1CCNCC1 [Example 120] .
Result block: 0.109 µM

Query block: Using Acinetobacter baumannii ATCC17961 as the test system, report measured IC90 of N#CCn1cc(-c2cnc3c(Nc4ccc(C(=O)N5CCC(NC(=O)C6CCNCC6)CC5)c(Cl)c4)nccn23)c(C(F)(F)F)n1 [Example 142] .
Result block: 0.554 µM

Query block: Using Acinetobacter baumannii ATCC17961 as the test system, report measured IC90 of CCc1cc(Nc2nccn3c(-c4cn(CC#N)nc4C(F)(F)F)cnc23)ccc1C(=O)NCCCCCN [Example 329] .
Result block: 0.211 µM

Query block: Using Acinetobacter baumannii ATCC17961 as the test system, report measured IC90 of O=C(c1ccc(Nc2nccn3c(-c4c[nH]nc4C(F)(F)F)cnc23)cc1Cl)N1CCNCC1 [Example 431] .
Result block: 0.449 µM

Query block: Using Acinetobacter baumannii ATCC17961 as the test system, report measured IC90 of CCc1cc(Nc2nccn3c(-c4cn(CC(F)F)nc4C(F)(F)F)cnc23)ccc1C(=O)N[C@H](C)CNC(=O)[C@@H]1CCCN1 [Example 649] .
Result block: 0.247 µM

Query block: Using Acinetobacter baumannii ATCC17961 as the test system, report measured IC90 of Cc1cc(Nc2nccn3c(-c4c[nH]nc4C(F)(F)F)cnc23)ccc1C(=O)NCCOCCN [Example 360, hydrochloride] .
Result block: 0.257 µM

Query block: Using Acinetobacter baumannii ATCC17961 as the test system, report measured IC90 of NCC(=O)N1CC2(C1)CN(C(=O)c1ccc(Nc3nccn4c(-c5c[nH]nc5C(F)(F)F)cnc34)cc1Cl)C2 [Example 658] .
Result block: 0.269 µM

Query block: Using Acinetobacter baumannii ATCC17961 as the test system, report measured IC90 of CCc1cc(Nc2nccn3c(-c4c[nH]nc4C(F)(F)F)cnc23)ccc1C(=O)N[C@H](C)CNC(=O)[C@@H]1C[C@@H](O)CN1 [Example 782] .
Result block: 1.15 µM

Query block: Using Acinetobacter baumannii ATCC17961 as the test system, report measured IC90 of CCc1cc(Nc2nccn3c(-c4cn(CC#N)nc4C(F)(F)F)cnc23)ccc1C(=O)NCC(=O)N1CC[C@@H](N)C1 [Example 504, formate] .
Result block: 0.238 µM

Query block: Using Acinetobacter baumannii ATCC17961 as the test system, report measured IC90 of Cc1cc(Nc2nccn3c(-c4cn(CC(F)F)nc4C(F)(F)F)cnc23)cc(F)c1C(=O)N1CCN(C(=O)CN)CC1 [Example 650] .
Result block: 0.252 µM

Query block: Using Acinetobacter baumannii ATCC17961 as the test system, report measured IC90 of CCc1cc(Nc2nccn3c(-c4cn(CC(F)F)nc4C(F)(F)F)cnc23)ccc1C(=O)NCC(=O)N1CCNCC1 [Example 679] .
Result block: 0.322 µM

----------
# Tested on: Acinetobacter baumannii ATCC17961
# TEST_DESCRIPTION: Antimicrobial susceptibility testing: 90% growth inhibitory concentration (IC90) determination in Iso-Sensitest broth, OD600 growth
# Assay type: cell-based
# CONDITIONS: Acinetobacter baumannii, ATCC17961, 16 h, strain ATCC 17961, OD600 growth over 16 h, read-out: A. baumannii ATCC 17961 IC90
Counter-ions that a name gives are not always drawn.
Kindly apply the following: class 1 if IC90 is less than 500 nM, class 0 in every other case.

Query block: Please check: IC90 for CCc1cc(Nc2nccn3c(-c4cn(CC(F)F)nc4C(F)(F)F)cnc23)ccc1C(=O)NCCNC(=O)[C@@H]1CCCN1 [Example 35] , strictly under 500 nM or not?
Result block: class 1

Query block: Please check: IC90 for CCc1cc(Nc2nccn3c(-c4cn(CC(F)F)nc4C(F)(F)F)cnc23)ccc1C(=O)NCC(=O)N1CC(N)C1 [Example 733] , strictly under 500 nM or not?
Result block: class 1

Query block: Please check: IC90 for NCCOCCNC(=O)c1ccc(Nc2nccn3c(-c4cn(CCF)nc4C(F)(F)F)cnc23)cc1Cl [Example 250] , strictly under 500 nM or not?
Result block: class 1

Query block: Please check: IC90 for CCc1cc(Nc2nccn3c(-c4cn(CC#N)nc4C(F)(F)F)cnc23)ccc1C(=O)NCC(=O)N1CCC(N)CC1 [Example 500, formate] , strictly under 500 nM or not?
Result block: class 1

Query block: Please check: IC90 for CCc1cc(Nc2nccn3c(-c4cn(CCF)nc4C(F)(F)F)cnc23)ccc1C(=O)NCCOCC(C)(C)N [Example 54] , strictly under 500 nM or not?
Result block: class 1

Query block: Please check: IC90 for N#CCn1cc(-c2cnc3c(Nc4ccc(C(=O)NCCNCC(=O)NCCCN)c(Cl)c4)nccn23)c(C(F)(F)F)n1 [Example 819] , strictly under 500 nM or not?
Result block: class 1

Query block: Please check: IC90 for CCc1cc(Nc2nccn3c(-c4cn(CC(O)C(F)(F)F)nc4C(F)(F)F)cnc23)ccc1C(=O)NCCOCCN (stereo not drawn) [Example 644] , strictly under 500 nM or not?
Result block: class 1

Query block: Please check: IC90 for N#CCn1cc(-c2cnc3c(Nc4ccc(C(=O)NCCOCCN)c(Cl)c4)nccn23)c(C(F)(F)F)n1 [Example 257] , strictly under 500 nM or not?
Result block: class 1

Query block: Please check: IC90 for C#CCn1cc(-c2cnc3c(Nc4ccc(C(=O)N5CCN(C(=O)[C@@H]6C[C@@H](O)CN6)CC5)c(CC)c4)nccn23)c(C(F)F)n1 [Example 785] , strictly under 500 nM or not?
Result block: class 0

Query block: Please check: IC90 for CCc1cc(Nc2nccn3c(-c4cn(CC#N)nc4C(F)(F)F)cnc23)ccc1C(=O)NCCOC[C@@H](C)N [Example 156] , strictly under 500 nM or not?
Result block: class 0

Query block: Please check: IC90 for NCCC(=O)NCCCNC(=O)c1ccc(Nc2nccn3c(-c4c[nH]nc4C(F)(F)F)cnc23)cc1Cl [Example 338, hydrochloride] , strictly under 500 nM or not?
Result block: class 0

Query block: Please check: IC90 for O=C(CN1CCN(C(=O)c2ccc(Nc3nccn4c(-c5cn(CC(F)F)nc5C(F)(F)F)cnc34)cc2Cl)CC1)N[C@H]1CCNC1 [Example 600] , strictly under 500 nM or not?
Result block: class 0

Query block: Please check: IC90 for Cc1cc(Nc2nccn3c(-c4cn(CC(F)F)nc4C(F)(F)F)cnc23)cc(F)c1C(=O)N1CCN(C(=O)[C@@H]2C[C@@H](O)CN2)CC1 [Example 698] , strictly under 500 nM or not?
Result block: class 1

Query block: Please check: IC90 for CN(CCN)C(=O)c1ccc(Nc2nccn3c(-c4c[nH]nc4C(F)(F)F)cnc23)cc1Cl [Example 322] , strictly under 500 nM or not?
Result block: class 0

Query block: Please check: IC90 for CCc1cc(Nc2nccn3c(-c4cn(CC#N)nc4C(F)(F)F)cnc23)ccc1C(=O)N[C@H](C)CN [Example 109] , strictly under 500 nM or not?
Result block: class 1

Query block: Please check: IC90 for C=CCn1cc(-c2cnc3c(Nc4cc(C)c(C(=O)N5CCN(C(=O)[C@H]6CC[C@H](O)N6)CC5)c(F)c4)nccn23)c(C(F)(F)F)n1 [Example 629] , strictly under 500 nM or not?
Result block: class 1

Query block: Please check: IC90 for CCc1cc(Nc2nccn3c(-c4cn(COC)nc4C(F)F)cnc23)ccc1C(=O)N1CCN(C(=O)[C@@H](C)N)CC1 [Example 778] , strictly under 500 nM or not?
Result block: class 0

Query block: Please check: IC90 for C=CCn1cc(-c2cnc3c(Nc4cc(C)c(C(=O)N[C@H](C)CN)c(F)c4)nccn23)c(C(F)(F)F)n1 [Example 680] , strictly under 500 nM or not?
Result block: class 1

Query block: Please check: IC90 for C#CCNCCCNC(=O)c1c(C)cc(Nc2nccn3c(-c4c[nH]nc4C(F)(F)F)cnc23)cc1F [Example 85] , strictly under 500 nM or not?
Result block: class 0

Query block: Please check: IC90 for CCc1cc(Nc2nccn3c(-c4c[nH]nc4C(F)(F)F)cnc23)ccc1C(=O)NC [Example 350] , strictly under 500 nM or not?
Result block: class 1

Query block: Please check: IC90 for O=C(CNCCNC(=O)c1ccc(Nc2nccn3c(-c4cn(CC(F)F)nc4C(F)(F)F)cnc23)cc1Cl)N[C@@H]1CCNC1 [Example 823] , strictly under 500 nM or not?
Result block: class 1

Query block: Please check: IC90 for O=C(c1ccc(Nc2nccn3c(-c4cn(C(F)F)nc4C(F)(F)F)cnc23)cc1Cl)N1CCN(C(=O)[C@@H]2CCCN2)CC1 [Example 104] , strictly under 500 nM or not?
Result block: class 1

Query block: Please check: IC90 for CNC(=O)c1ccc(Nc2nccn3c(-c4cn(C5CNC5)nc4C(F)(F)F)cnc23)cc1Cl [Example 348, hydrochloride] , strictly under 500 nM or not?
Result block: class 0

Query block: Please check: IC90 for CCc1cc(Nc2nccn3c(-c4c[nH]nc4C(F)(F)F)cnc23)ccc1C(=O)NCCNC(=O)[C@H]1CC[C@@H](N)C1 [Example 724] , strictly under 500 nM or not?
Result block: class 1

Query block: Please check: IC90 for CCc1cc(Nc2nccn3c(-c4cn(CC#N)nc4C(F)(F)F)cnc23)ccc1C(=O)NCC(=O)NCC1CNC1 [Example 521, formate] , strictly under 500 nM or not?
Result block: class 1

Query block: Please check: IC90 for CCc1cc(Nc2nccn3c(-c4cn(CCF)nc4C(F)F)cnc23)ccc1C(=O)N1CCN(C(=O)C2(O)CCNCC2)CC1 [Example 791] , strictly under 500 nM or not?
Result block: class 0

Query block: Please check: IC90 for C[C@H]1CN(C(=O)c2ccc(Nc3nccn4c(-c5c[nH]nc5C(F)(F)F)cnc34)cc2Cl)CCN1 [Example 321] , strictly under 500 nM or not?
Result block: class 0
